Reported ED50 is given for each of the following compounds.
System: collagen-induced arthritis in rats
Assay: In vivo established type II collagen arthritis study
Parameters: species or system Female Lewis rats
Details: Rattus norvegicus, po, oral gavage bid, days 1-7 of arthritis, first column so headed (c3), read-out: ED50 summed ankle histology
Unit mg/kg implied. Number only.

Consider the reported ED50 for these compounds:
In [3]: df
Out[3]:
                                   compound  unit_tag  result
0  CN(C)CC(C)(C)CNc1nccc(-c2c(-c3ccc(F)cc3)nc3occn23)n1     mg/kg    2.64
1  CC(=O)N1CCC(Nc2nccc(-c3c(-c4ccc(F)cc4)nc4occn34)n2)CC1     mg/kg    3.09
2  Fc1ccc(-c2nc3occn3c2-c2ccnc(N[C@H]3CN4CCC3CC4)n2)cc1     mg/kg    2.07
3  Fc1ccc(-c2nc3occn3c2-c2ccnc(NC3CN4CCC3CC4)n2)cc1 (stereo not drawn)     mg/kg     2.6
4  CN1[C@@H]2CC[C@H]1C[C@@H](Nc1nccc(-c3c(-c4ccc(F)cc4)nc4occn34)n1)C2     mg/kg    0.93

Below: the item to evaluate.
Request: So what's the measured ED50 for this one? CS(=O)(=O)N1CCC(Nc2nccc(-c3c(-c4ccc(F)cc4)nc4occn34)n2)CC1
Result: 4.29

* * *

Target: PKBβ (Homo sapiens, UniProt P31751)
Construct: purchased Upstate (Charlottesville, Va.)
Sequence (P31751 whole entry, species assumed): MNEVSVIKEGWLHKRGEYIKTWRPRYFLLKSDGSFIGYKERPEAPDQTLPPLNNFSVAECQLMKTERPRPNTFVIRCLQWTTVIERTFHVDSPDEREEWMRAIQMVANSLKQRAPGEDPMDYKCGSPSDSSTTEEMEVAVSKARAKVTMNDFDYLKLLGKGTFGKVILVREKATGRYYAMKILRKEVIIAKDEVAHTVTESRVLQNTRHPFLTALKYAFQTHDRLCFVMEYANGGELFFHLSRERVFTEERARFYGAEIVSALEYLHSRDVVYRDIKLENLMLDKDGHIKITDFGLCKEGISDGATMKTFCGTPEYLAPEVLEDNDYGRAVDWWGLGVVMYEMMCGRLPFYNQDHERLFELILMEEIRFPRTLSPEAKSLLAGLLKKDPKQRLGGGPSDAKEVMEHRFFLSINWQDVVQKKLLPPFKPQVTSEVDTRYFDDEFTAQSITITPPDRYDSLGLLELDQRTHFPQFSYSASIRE
Assay: Broad selectivity panel, 32P incorporation
Format: biochemical
Conditions: 1 μM compound, 40 μM ATP; read-out: Percent inhibition PKBβ
attribute_measured: inhibition at 1 µM

# count of solved cases: 2
>>> df
                              smiles_string  result
0  Fc1ccc(-c2nc3occn3c2-c2ccnc(N[C@@H]3CN4CCC3CC4)n2)cc1     -5%
1  Fc1ccc(-c2nc3occn3c2-c2ccnc(N[C@H]3CN4CCC3CC4)n2)cc1    -29%

Request: // inhibition at 1 µM lookup, key: CN1[C@@H]2CC[C@H]1C[C@@H](Nc1nccc(-c3c(-c4ccc(F)cc4)nc4occn34)n1)C2
Result: 13%

* * *

Listing: inhibition at 0.1 µM of selected compounds
Biological target: Lyn (Homo sapiens)
Construct: purchased Upstate (Charlottesville, Va.)
Sequence (P07948 whole entry, species assumed): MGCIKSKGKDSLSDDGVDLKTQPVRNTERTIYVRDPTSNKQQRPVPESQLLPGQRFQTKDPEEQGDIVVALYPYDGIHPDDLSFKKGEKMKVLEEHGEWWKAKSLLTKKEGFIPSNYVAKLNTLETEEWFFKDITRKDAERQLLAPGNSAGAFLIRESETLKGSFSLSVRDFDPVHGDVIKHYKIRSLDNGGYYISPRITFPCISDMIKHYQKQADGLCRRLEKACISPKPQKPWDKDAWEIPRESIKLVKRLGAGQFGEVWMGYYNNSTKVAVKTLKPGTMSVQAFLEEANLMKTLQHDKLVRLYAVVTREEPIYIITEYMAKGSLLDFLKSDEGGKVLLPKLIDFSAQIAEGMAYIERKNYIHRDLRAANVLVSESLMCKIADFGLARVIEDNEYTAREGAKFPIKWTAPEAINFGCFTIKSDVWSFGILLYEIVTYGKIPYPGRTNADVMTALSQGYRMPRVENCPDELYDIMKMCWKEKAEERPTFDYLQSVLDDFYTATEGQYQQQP
Assay: Broad selectivity panel, 32P incorporation
Type: biochemical
Settings: 0.1 μM compound, 40 μM ATP; read-out: Percent inhibition Lyn
Only the number, expressed in %, is required.

The cases that follow already have their inhibition at 0.1 µM on record.
>>> print(df.to_string())
                              smiles_string  unit_tag  result
0  Fc1ccc(-c2nc3occn3c2-c2ccnc(N[C@H]3CN4CCC3CC4)n2)cc1         %     -32
1  CS(=O)(=O)N1CCC(Nc2nccc(-c3c(-c4ccc(F)cc4)nc4occn34)n2)CC1         %      -7

Turning now to a further compound:
Request: Sample CN(C)CC(C)(C)CNc1nccc(-c2c(-c3ccc(F)cc3)nc3occn23)n1 — what was its inhibition at 0.1 µM?
Result: 2

* * *

Molecular target: GSK3β (Homo sapiens)
Construct: purchased Upstate (Charlottesville, Va.)
Sequence (P49841 whole entry, species assumed): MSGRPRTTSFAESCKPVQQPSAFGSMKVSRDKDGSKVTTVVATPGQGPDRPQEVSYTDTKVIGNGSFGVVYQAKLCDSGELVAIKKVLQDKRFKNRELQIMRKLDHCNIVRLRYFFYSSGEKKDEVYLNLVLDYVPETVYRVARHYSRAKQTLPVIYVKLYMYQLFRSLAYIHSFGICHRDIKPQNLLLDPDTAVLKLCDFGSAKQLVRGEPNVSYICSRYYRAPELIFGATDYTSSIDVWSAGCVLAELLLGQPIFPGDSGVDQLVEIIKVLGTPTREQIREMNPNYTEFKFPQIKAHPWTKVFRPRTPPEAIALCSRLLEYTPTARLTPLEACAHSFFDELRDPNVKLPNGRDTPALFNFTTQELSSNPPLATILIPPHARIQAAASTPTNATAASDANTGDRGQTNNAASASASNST
Test: Broad selectivity panel, 32P incorporation
Type: biochemical
Conditions: 0.1 μM compound, 40 μM ATP; read-out: Percent inhibition GSK3β
Given measured inhibition at 0.1 µM, output 1 (yes) if it is greater than or equal to 10% and 0 (no) if not.

See these solved cases before continuing.
                                   compound  label_value
0  CN1[C@@H]2CC[C@H]1C[C@@H](Nc1nccc(-c3c(-c4ccc(F)cc4)nc4occn34)n1)C2 [CCLXXXI]       0 (no)
1  CC(=O)N1CCC(Nc2nccc(-c3c(-c4ccc(F)cc4)nc4occn34)n2)CC1 [CCLXXVIII]      1 (yes)
2  CN(C)CC(C)(C)CNc1nccc(-c2c(-c3ccc(F)cc3)nc3occn23)n1 [CXIX]      1 (yes)
3  Fc1ccc(-c2nc3occn3c2-c2ccnc(NC3CCNCC3)n2)cc1 [CCLXXX]       0 (no)

Shifting focus to the compound that follows.
Request: Could you tell me if the measured inhibition at 0.1 µM of CS(=O)(=O)N1CCC(Nc2nccc(-c3c(-c4ccc(F)cc4)nc4occn34)n2)CC1 [CCLXXIX] reaches 10% or more?
Result: 1 (yes)

* * *

Target: p38α (Homo sapiens, UniProt Q16539)
Construct: p38 MAP Kinases are recombinant human full-length proteins with an amino-terminal GST fusion; GST (N)
Sequence (Q16539 whole entry, the tested form may be a part): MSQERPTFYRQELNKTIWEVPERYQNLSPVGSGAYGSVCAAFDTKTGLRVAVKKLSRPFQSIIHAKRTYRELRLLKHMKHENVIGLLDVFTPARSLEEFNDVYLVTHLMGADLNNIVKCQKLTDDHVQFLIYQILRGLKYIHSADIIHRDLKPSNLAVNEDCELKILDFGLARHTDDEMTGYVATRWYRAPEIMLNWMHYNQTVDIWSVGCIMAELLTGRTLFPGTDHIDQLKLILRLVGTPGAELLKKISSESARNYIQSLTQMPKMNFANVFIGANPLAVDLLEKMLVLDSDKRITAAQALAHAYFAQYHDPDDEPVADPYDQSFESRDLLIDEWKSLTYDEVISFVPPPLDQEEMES
Test: p38 MAP Kinase assay, ATF2 phosphorylation (ELISA)
Conditions: 40 μM ATP
attribute_measured: IC50 (nM)
Just the number in nM, nothing appended.

Example results:
In [3]: df
Out[3]:
                                   molecule  attribute_measured  unit_tag  result
0  O=C(c1ccc(F)cc1)N1CCC(Nc2nccc(-c3c(-c4ccc(F)cc4)nc4sccn34)n2)CC1                IC50        nM    2.02
1  COc1cccc(-c2nc3sccn3c2-c2ccnc(NCC(C)O)n2)c1 (stereo not drawn)                IC50        nM    61.2
2  C[C@@H](Nc1nccc(-c2c(-c3ccc(F)cc3)nc3occn23)n1)[C@@H](O)c1ccccc1                IC50        nM    79.1
3  O=C(Nc1ccc(F)cc1)N1CCC(Nc2nccc(-c3c(-c4ccc(F)cc4)nc4sccn34)n2)CC1                IC50        nM    1.07

Request: Consider the molecule COc1cccc(CNc2nccc(-c3c(-c4ccc(F)cc4)nc4occn34)n2)c1OC and give its measured IC50.
Result: 342

Request: What do you have for NCCNc1nccc(-c2c(-c3ccc(F)cc3)nc3occn23)n1 ?
Result: 253

* * *

Molecular target: p38α (Homo sapiens)
Construct: p38 MAP Kinases are recombinant human full-length proteins with an amino-terminal GST fusion; GST (N)
Assay: p38 MAP Kinase assay, ATF2 phosphorylation (ELISA)
Conditions: 40 μM ATP
attribute_measured: pIC50
Please treat pIC50 as minus the base-10 logarithm of the molar concentration.

>>> print(df.to_string())
                                   molecule          test_system  result
0  Fc1ccc(-c2nc3sccn3c2-c2ccnc(OCc3ccccc3)n2)cc1 [CXLIX]  p38α (Homo sapiens)    6.82
1  COCCCNc1nccc(-c2c(-c3ccc(F)cc3)nc3occn23)n1 [XCVII]  p38α (Homo sapiens)    8.85
2  OC1(CNc2nccc(-c3c(-c4ccc(F)cc4)nc4occn34)n2)CCCCC1 [CXVII]  p38α (Homo sapiens)    7.69
3  CCNC(=O)N1CCC(Nc2nccc(-c3c(-c4ccc(F)cc4)nc4sccn34)n2)CC1 [CCLV]  p38α (Homo sapiens)    8.67
4  C[C@H](O)CNc1nccc(-c2c(-c3ccc(F)cc3)nc3occn23)n1 [XXI]  p38α (Homo sapiens)    8.16
5  Fc1ccc(-c2nc3occn3c2-c2ccnc(NC3CN4CCC3CC4)n2)cc1 (stereo not shown) [LXXXIV]  p38α (Homo sapiens)    7.82

Please find the next molecule below.
Request: p38α (Homo sapiens) / pIC50 / Fc1ccc(-c2nc3occn3c2-c2ccnc(N[C@@H]3CN4CCC3CC4)n2)cc1 [LXXI] : value?
Result: 7.56

* * *

Target: PKB α (Homo sapiens, UniProt P31749)
Construct: purchased Upstate (Charlottesville, Va.)
Sequence (P31749 whole entry, species assumed): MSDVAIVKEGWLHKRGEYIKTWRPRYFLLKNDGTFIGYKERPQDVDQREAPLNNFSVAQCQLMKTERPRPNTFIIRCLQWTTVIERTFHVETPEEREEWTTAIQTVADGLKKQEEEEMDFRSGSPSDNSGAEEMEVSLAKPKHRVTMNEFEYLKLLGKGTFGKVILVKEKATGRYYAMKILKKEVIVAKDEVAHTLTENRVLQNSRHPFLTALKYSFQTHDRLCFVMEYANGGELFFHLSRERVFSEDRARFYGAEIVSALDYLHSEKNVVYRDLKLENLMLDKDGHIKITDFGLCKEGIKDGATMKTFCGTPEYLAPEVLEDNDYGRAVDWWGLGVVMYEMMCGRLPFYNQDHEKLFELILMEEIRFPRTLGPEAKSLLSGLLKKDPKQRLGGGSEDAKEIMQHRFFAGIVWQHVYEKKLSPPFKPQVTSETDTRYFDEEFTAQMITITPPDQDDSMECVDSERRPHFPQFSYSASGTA
Experiment: Broad selectivity panel, 32P incorporation
Type: biochemical
Details: 1 μM compound, 40 μM ATP; read-out: Percent inhibition PKB α
Each entry below lists one item and its recorded inhibition at 1 µM value.
Note: unit % is implicit; provide only the numeric part.

Examples from the recorded data:
>>> print(df.to_string())
                              smiles_string  attribute_measured  unit_tag  result
0  CS(=O)(=O)N1CCC(Nc2nccc(-c3c(-c4ccc(F)cc4)nc4occn34)n2)CC1  inhibition at 1 µM         %       6
1  CN1[C@@H]2CC[C@H]1C[C@@H](Nc1nccc(-c3c(-c4ccc(F)cc4)nc4occn34)n1)C2  inhibition at 1 µM         %       6
2  CN(C)CC(C)(C)CNc1nccc(-c2c(-c3ccc(F)cc3)nc3occn23)n1  inhibition at 1 µM         %       5
3  Fc1ccc(-c2nc3occn3c2-c2ccnc(N[C@H]3CN4CCC3CC4)n2)cc1  inhibition at 1 µM         %       5

Consider now this further compound.
Request: // lookup inhibition at 1 µM for Fc1ccc(-c2nc3occn3c2-c2ccnc(NC3CCNCC3)n2)cc1
Result: 13
